target: HIF-1 (HIF-1alpha/HIF-1beta (ARNT) heterodimer) (UniProt Q16665;P27540 Q16665:1-826,P27540:2-789); experiment: competition; TransAM; two sites; details: protein: extract; tags: none (endogenous, nuclear extract)
Sequence (Q16665 whole entry, chain 1 of 2): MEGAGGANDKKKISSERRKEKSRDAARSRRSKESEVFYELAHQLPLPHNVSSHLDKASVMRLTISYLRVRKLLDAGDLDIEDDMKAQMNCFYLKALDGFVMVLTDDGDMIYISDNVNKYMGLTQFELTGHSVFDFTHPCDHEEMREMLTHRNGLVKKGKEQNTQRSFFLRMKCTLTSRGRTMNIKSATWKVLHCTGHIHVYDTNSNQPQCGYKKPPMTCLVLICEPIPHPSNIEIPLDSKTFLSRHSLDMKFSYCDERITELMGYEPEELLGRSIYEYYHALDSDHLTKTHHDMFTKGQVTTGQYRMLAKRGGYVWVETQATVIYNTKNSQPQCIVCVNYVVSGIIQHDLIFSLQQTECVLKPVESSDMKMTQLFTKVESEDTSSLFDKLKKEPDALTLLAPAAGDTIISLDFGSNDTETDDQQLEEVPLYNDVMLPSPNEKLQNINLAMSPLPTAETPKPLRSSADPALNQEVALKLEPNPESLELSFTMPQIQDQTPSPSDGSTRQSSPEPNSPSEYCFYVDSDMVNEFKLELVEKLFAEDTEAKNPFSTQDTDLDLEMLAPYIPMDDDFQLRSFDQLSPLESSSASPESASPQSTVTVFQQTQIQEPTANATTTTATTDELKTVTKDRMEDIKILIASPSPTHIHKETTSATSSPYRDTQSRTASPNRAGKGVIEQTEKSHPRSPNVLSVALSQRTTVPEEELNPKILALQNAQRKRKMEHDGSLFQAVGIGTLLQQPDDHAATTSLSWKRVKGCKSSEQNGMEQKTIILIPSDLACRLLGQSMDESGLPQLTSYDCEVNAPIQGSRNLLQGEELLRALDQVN
Sequence (P27540 2-789, chain 2 of 2): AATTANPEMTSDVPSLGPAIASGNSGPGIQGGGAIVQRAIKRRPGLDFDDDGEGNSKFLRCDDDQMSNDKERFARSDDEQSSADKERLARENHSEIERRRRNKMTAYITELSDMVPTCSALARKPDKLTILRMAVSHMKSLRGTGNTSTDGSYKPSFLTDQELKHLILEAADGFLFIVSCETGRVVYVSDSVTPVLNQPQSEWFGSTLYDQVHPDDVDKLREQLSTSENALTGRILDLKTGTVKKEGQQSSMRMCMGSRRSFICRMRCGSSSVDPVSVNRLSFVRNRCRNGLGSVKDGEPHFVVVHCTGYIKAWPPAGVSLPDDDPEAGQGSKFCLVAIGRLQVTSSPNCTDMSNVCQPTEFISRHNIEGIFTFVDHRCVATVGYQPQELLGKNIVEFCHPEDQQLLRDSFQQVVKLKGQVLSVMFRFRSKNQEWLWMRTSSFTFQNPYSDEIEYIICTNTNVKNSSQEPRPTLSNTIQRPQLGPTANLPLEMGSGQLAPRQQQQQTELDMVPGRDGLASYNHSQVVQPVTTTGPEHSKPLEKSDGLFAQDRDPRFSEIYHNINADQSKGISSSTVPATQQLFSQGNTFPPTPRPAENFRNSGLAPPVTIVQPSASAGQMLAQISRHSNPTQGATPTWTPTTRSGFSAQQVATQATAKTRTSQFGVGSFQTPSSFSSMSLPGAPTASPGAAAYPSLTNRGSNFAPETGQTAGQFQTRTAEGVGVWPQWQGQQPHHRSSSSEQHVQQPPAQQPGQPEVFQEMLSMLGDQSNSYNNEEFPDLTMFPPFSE
measurement_label: binding signal (ratio)
I only need the number, in ratio, no unit after it.

Tell me binding signal reported for decoy 819/820 double (dsDNA) DNA 1: GAAATACGTGCGCTTTGTGTGTACGTGCAGGAA DNA 2: TTCCTGCACGTACACACAAAGCGCACGTATTTC
1.16

Give a short answer stating reported binding signal for decoy 857/858 double (dsDNA) DNA 1: GCGGACGTGCGGGAACCCACGTGTAGG DNA 2: CCTACACGTGGGTTCCCGCACGTCCGC .
2.46

For the binder decoy 907 double (dsDNA) DNA 1: GAAATACGTGCGTGTGTACGTGCAGG DNA 2: CCTGCACGTACACACGCACGTATTTC , give its reported binding signal.
0.91

Quote binding signal reported for decoy 841/842 double (dsDNA) DNA 1: AGCGGACGTGCAGAAGTTGCACGTCCTCT DNA 2: AGAGGACGTGCAACTTCTGCACGTCCGCT please.
0.99

Quote binding signal reported for decoy 909 double (dsDNA) DNA 1: AGCGGACGTGCAGATGCACGTCCTCT DNA 2: AGAGGACGTGCATCTGCACGTCCGCT please.
1.72
